The measured values listed here are drawn from the supplement of paper PMC6555819.

System: RARg homodimer (NR concentration 270 nM)
Assay Name: PBM binding z-score (relative to random genomic background probes); higher = stronger binding; sequences stand for … in GC…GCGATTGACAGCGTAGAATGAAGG
t means recorded PBM binding z-score is 5 or above; f means it is below 5.

>  <Input Sequence>
AGTCAAAGTTCATCTAGGTAAGGTAAGATATGCT

>  <Target Under Test>
RARg homodimer (NR concentration 270 nM)

>  <Assigned Class>
t

$$$$
>  <Input Sequence>
CGTCCAAGGTCAGAGAGCTCAGTGAATGCCGAGT

>  <Target Under Test>
RARg homodimer (NR concentration 270 nM)

>  <Assigned Class>
t

$$$$
>  <Input Sequence>
TCGAGTAGGTTACGGGCATTCAGAATGGCGTCGA

>  <Target Under Test>
RARg homodimer (NR concentration 270 nM)

>  <Assigned Class>
f

$$$$
>  <Input Sequence>
TAGCCCAGGTCATGCGGGCCAGTATAGTGTCGGC

>  <Target Under Test>
RARg homodimer (NR concentration 270 nM)

>  <Assigned Class>
f

$$$$
>  <Input Sequence>
TCGAGTCGGTTAGGGGCATTCAGAATGGCGTCGA

>  <Target Under Test>
RARg homodimer (NR concentration 270 nM)

>  <Assigned Class>
f

$$$$
>  <Input Sequence>
GCTTGTAGATCAAGATTAAGAAAGACTAAGCTAA

>  <Target Under Test>
RARg homodimer (NR concentration 270 nM)

>  <Assigned Class>
f

$$$$
>  <Input Sequence>
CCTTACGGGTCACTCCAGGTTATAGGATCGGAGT

>  <Target Under Test>
RARg homodimer (NR concentration 270 nM)

>  <Assigned Class>
f

$$$$
